# SYSTEM UNDER TEST: Human recombinant FAP (Homo sapiens, UniProt Q12884)
# Sequence (Q12884 whole entry): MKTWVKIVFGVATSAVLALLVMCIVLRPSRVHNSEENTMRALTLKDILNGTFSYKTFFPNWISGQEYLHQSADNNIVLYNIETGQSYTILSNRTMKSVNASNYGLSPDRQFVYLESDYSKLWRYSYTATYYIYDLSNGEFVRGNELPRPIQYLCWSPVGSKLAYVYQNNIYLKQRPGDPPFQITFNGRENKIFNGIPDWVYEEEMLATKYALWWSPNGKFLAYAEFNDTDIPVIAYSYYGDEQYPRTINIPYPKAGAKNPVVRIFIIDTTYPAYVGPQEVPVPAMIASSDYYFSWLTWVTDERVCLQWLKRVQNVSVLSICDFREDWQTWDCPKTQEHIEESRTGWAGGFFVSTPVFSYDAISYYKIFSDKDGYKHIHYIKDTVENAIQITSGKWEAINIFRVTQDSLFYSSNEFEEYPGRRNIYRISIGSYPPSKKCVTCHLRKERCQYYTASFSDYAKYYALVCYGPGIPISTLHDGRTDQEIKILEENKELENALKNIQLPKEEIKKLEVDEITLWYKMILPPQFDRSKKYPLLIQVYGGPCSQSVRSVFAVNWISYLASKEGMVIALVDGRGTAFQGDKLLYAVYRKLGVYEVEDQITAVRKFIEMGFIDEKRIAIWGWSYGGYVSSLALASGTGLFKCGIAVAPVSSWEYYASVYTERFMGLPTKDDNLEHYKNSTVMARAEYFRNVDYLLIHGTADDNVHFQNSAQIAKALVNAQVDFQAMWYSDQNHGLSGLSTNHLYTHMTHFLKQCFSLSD
# EXPERIMENT: FRET-based FAP protease activity assay
# Type: biochemical
# Design: purchased R&D systems 3715-SE
# SETUP CONDITIONS: pIC50 Category (Activity), FRET-based FAP protease activity assay, recombinant human FAP, 37° C.
Numbered stars: 1 amine (or outer) side, 2 acyl side, 3 side chain; on linkers, the order of the positions; unused ones are H or OH. Bridge positions count the residues as written; N and C are the ends. Square brackets hold non-standard residues; d marks the D form. Peptide text beside a SMILES is read from it. * marks the point of attachment. TBMB(SCH2CH2NH-DOTA) = O=C(O)CN1CCN(CC(=O)O)CCN(CC(=O)NCCSCc2cc(C[*:1])cc(C[*:2])c2)CCN(CC(=O)O)CC1; Bip = N[C@@H](Cc1ccc(-c2ccccc2)cc1)C(=O)O; 1Nal = N[C@@H](Cc1cccc2ccccc12)C(=O)O; mXylylene = c1cc(C[*:1])cc(C[*:2])c1; Hyp = O=C(O)[C@@H]1C[C@@H](O)CN1; Pen = CC(C)(S)[C@H](N)C(=O)O; Hexanoyl = CCCCCC(=O)*; Nlys = NCCCCNCC(=O)O; Mpa = O=C(O)CCS

{"MOLECULE": "CCCCCC(=O)N[C@H]1CSCc2cccc(c2)CSC[C@@H](C(N)=O)NC(=O)[C@H](Cc2ccccc2)NC(=O)[C@H](CCC(N)=O)NC(=O)[C@H]([C@@H](C)O)NC(=O)[C@@H]2CCCN2C(=O)CN(CCCCN)C1=O [3BP-3747] (Hexanoyl-C[Nlys]PTQFC-NH2; linker 1-7 via mXylylene)", "IC50": "> 1000 nM"}
{"MOLECULE": "CCCCCC(=O)N[C@H]1CSCc2cc(CSCCNC(=O)CN3CCN(CC(=O)O)CCN(CC(=O)O)CCN(CC(=O)O)CC3)cc(c2)CSC[C@@H](C(=O)O)NC(=O)[C@H](Cc2cccc3ccccc23)NC(=O)[C@H](CCC(N)=O)NC(=O)[C@H]([C@@H](C)O)NC(=O)[C@@H]2CCCN2C(=O)[C@@H]2CCCN2C1=O [3BP-3650] (Hexanoyl-CPPTQ[1Nal]C-OH; linker 1-7 via TBMB(SCH2CH2NH-DOTA))", "IC50": "< 10 nM"}
{"MOLECULE": "CCCCCC(=O)N[C@H]1CSCc2cccc(c2)CSC(C)(C)[C@@H](C(N)=O)NC(=O)[C@H](Cc2ccccc2)NC(=O)[C@H](CCC(=O)O)NC(=O)[C@H]([C@@H](C)O)NC(=O)[C@@H]2CCCN2C(=O)[C@@H]2CCCN2C1=O [3BP-3351] (Hexanoyl-CPPTEF[Pen]-NH2; linker 1-7 via mXylylene)", "IC50": "100 to 794 nM"}
{"MOLECULE": "CCCCCC(=O)N[C@H]1CSCc2cc(CSCCNC(=O)CN3CCN(CC(=O)O)CCN(CC(=O)O)CCN(CC(=O)O)CC3)cc(c2)CSC[C@@H](C(=O)N(C)CC(=O)O)NC(=O)[C@H](Cc2ccccc2)NC(=O)[C@H](CCC(N)=O)NC(=O)[C@H]([C@@H](C)O)NC(=O)[C@@H]2CCCN2C(=O)[C@@H]2CCCN2C1=O", "IC50": "< 10 nM"}
{"MOLECULE": "CCCCCC(=O)N[C@H]1CSCc2cc(CSCCNC(=O)CN3CCN(CC(=O)O)CCN(CC(=O)O)CCN(CC(=O)O)CC3)cc(c2)CSC[C@@H](C(=O)NCC(=O)O)NC(=O)[C@H](Cc2ccccc2)NC(=O)[C@H](CCC(N)=O)NC(=O)[C@H]([C@@H](C)O)NC(=O)[C@@H]2CCCN2C(=O)[C@@H]2CCCN2C1=O [3BP-3656] (Hexanoyl-CPPTQFCG-OH; linker 1-7 via TBMB(SCH2CH2NH-DOTA))", "IC50": "< 10 nM"}
{"MOLECULE": "CCCCCC(=O)N[C@H]1CSCc2cccc(c2)CSC[C@@H](C(N)=O)NC(=O)[C@H](Cc2ccccc2)NC(=O)[C@H](CCC(=O)O)NC(=O)[C@H]([C@@H](C)O)NC(=O)[C@@H]2C[C@@H](O)CN2C(=O)[C@@H]2CCCN2C1=O [3BP-3366] (Hexanoyl-CP[Hyp]TEFC-NH2; linker 1-7 via mXylylene)", "IC50": "10 to 79.4 nM"}
{"MOLECULE": "CCCCCC(=O)N[C@H]1CSCc2cc(CSCCNC(=O)CN3CCN(CC(=O)O)CCN(CC(=O)O)CCN(CC(=O)O)CC3)cc(c2)CSC[C@@H](C(=O)O)NC(=O)[C@H](Cc2ccccc2C(F)(F)F)NC(=O)[C@H](CCC(N)=O)NC(=O)[C@H]([C@@H](C)O)NC(=O)[C@@H]2CCCN2C(=O)[C@@H]2CCCN2C1=O", "IC50": "< 10 nM"}
{"MOLECULE": "CCCCCC(=O)N[C@H]1CSCc2cccc(c2)CSC[C@@H](C(N)=O)NC(=O)[C@H](Cc2ccc(-c3ccccc3)cc2)NC(=O)[C@H](CCC(=O)O)NC(=O)[C@H]([C@@H](C)O)NC(=O)[C@@H]2CCCN2C(=O)[C@@H]2CCCN2C1=O [3BP-3363] (Hexanoyl-CPPTE[Bip]C-NH2; linker 1-7 via mXylylene)", "IC50": "> 1000 nM"}
{"MOLECULE": "C[C@@H](O)[C@@H]1NC(=O)[C@@H]2CCCN2C(=O)[C@@H]2CCCN2C(=O)CCSCc2cccc(c2)CSC[C@@H](C(=O)N[C@@H](CC(=O)O)C(N)=O)NC(=O)[C@H](Cc2ccccc2)NC(=O)[C@H](CCC(N)=O)NC1=O [3BP-3419] ([Mpa]PPTQFCD-NH2; linker 1-7 via mXylylene)", "IC50": "100 to 794 nM"}
{"MOLECULE": "C[C@@H](O)[C@@H]1NC(=O)[C@@H]2CCCN2C(=O)[C@@H]2CCCN2C(=O)[C@@H](NC(=O)CCCC(=O)O)CSCc2cccc(c2)CSC[C@@H](C(N)=O)NC(=O)[C@H](Cc2ccccc2)NC(=O)[C@H](CCC(N)=O)NC1=O", "IC50": "100 to 794 nM"}
{"MOLECULE": "CCCCCC(=O)N[C@H]1CSCc2cc(CSCCNC(=O)CN3CCN(CC(=O)O)CCN(CC(=O)O)CCN(CC(=O)O)CC3)cc(c2)CSC[C@@H](C(N)=O)NC(=O)[C@H](Cc2ccccc2)NC(=O)[C@H](CCC(N)=O)NC(=O)[C@H]([C@@H](C)O)NC(=O)[C@@H]2CCCN2C(=O)[C@@H]2CCCN2C1=O", "IC50": "< 10 nM"}
{"MOLECULE": "CCCCCC(=O)N[C@H]1CSCc2cc(cc(CN3CCN(C(=O)CN4CCN(CC(=O)O)CCN(CC(=O)O)CCN(CC(=O)O)CC4)CC3)c2)CSC[C@@H](C(=O)O)NC(=O)[C@H](Cc2ccccc2)NC(=O)[C@H](CCC(N)=O)NC(=O)[C@H]([C@@H](C)O)NC(=O)[C@@H]2CCCN2C(=O)[C@@H]2CCCN2C1=O", "IC50": "< 10 nM"}
